method: Tmax in Wistar rat at 166.3 mg/kg, po
Format: ADME, organism-based
condition_set: in vivo
reported_metric: Tmax (min)
Give bare numbers, in min.

stdin: Requested read-out: Tmax. Entry: C[N+]1(C)CCC[C@H]1C(=O)[O-]
stdout: 45

---

method: Clearance in Wistar rat at 10 mg/kg, iv measured for 24 hrs by LC-MS/MS analysis
Assay type: ADME, organism-based
condition_set: in vivo
reported_metric: clearance (mL/min/kg)
Answers are plain numbers, in mL/min/kg.

stdin: For the compound shown here, C[N+]1(C)CCC[C@H]1C(=O)[O-] , give the reported clearance.
stdout: 15.5

---

method: Apparent oral clearance in KYDS rat at 1 g/Kg, IG by LC-MS/MS analysis
Format: ADME
condition_set: in vivo, 1000 mg/kg
reported_metric: CL/F (mL/min/kg)
Give bare numbers, in mL/min/kg.

stdin: Reported CL/F for C[N+]1(C)CCC[C@H]1C(=O)[O-] : what is it?
stdout: 1
